Entries and their pEC50
biological target: FPRL-1 (Homo sapiens, UniProt P25090); construct: expressed in transfected cells; assay: compound-induced calcium activity on FLIPR Tetra in CHO-Ga16 cells stably expressing FPRL1; assay type: cell-based; settings: tested at 0.61 to 10,000 nM
Sequence (P25090 whole entry): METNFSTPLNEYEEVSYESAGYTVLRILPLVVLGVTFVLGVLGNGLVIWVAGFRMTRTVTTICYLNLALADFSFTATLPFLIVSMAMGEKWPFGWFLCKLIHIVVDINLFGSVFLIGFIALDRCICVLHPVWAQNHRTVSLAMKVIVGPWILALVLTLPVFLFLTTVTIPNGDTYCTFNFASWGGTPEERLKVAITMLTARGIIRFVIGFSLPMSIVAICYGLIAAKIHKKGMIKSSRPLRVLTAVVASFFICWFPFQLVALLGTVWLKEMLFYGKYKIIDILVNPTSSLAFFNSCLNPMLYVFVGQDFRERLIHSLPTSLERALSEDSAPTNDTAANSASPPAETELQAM
# pEC50 is unitless: minus log10 of the molar concentration; print number only

# example entries with known answers
CSc1ccc(NC(=O)Nc2ccc3c(c2)C(=O)N(CCCN)[C@H](c2ccc(C#N)cc2)C3)cc1 [Compound 10] :: 6.52
CSc1ccc(NC(=O)Nc2ccc3c(c2)C(=O)N(CCCN)C(C)C3)cc1 (stereo not shown) [Compound 16] :: 7.82
C[S+]([O-])c1ccc(NC(=O)Nc2ccc3c(c2)C(=O)N(CCc2c[nH]cn2)C(c2ccc(C#N)cc2)C3)cc1 (stereo not shown) [Compound 29] :: 7.66
CC(=O)c1ccc(NC(=O)Nc2ccc3c(c2)C(=O)N(CCc2c[nH]cn2)C(c2ccc(Cl)c(Cl)c2)C3)cc1 (stereo not shown) [Compound 20] :: 7.55
N#Cc1ccc(C2Cc3ccc(NC(=O)Nc4ccc(C(F)(F)F)cc4)cc3C(=O)N2CCCN)cc1 (stereo not shown) [Compound 4] :: 7.68
CS(=O)(=O)c1ccc(NC(=O)Nc2ccc3c(c2)C(=O)N(CCc2c[nH]cn2)C(c2ccc(F)cn2)C3)cc1 (stereo not shown) [Compound 32] :: 7.98

// switching to the query molecule
Entry CSc1ccc(NC(=O)Nc2ccc3c(c2)C(=O)N(CCCN)C(c2ccc(C#N)cc2)C3)cc1 (stereo not shown) [Compound 5] , tested on FPRL-1 (Homo sapiens, UniProt P25090), has a reported pEC50 of 8.60
